Experiment: in vitro
Conditions: mouse
Ends that are not written are not given here.
property: IC50 at 24 h (µM)
Give the number; µM is assumed, so skip it.

*Q* Value lookup for IC50 at 24 h; key = GRFKRFRKKFKKLFKKLS-OH [BMAP-18, G-R-F-K-R-F-R-K-K-F-K-K-L-F-K-K-L-S-OH]
*A* 150

* * *

Test: in vitro
Settings: mouse
Numbered stars: 1 amine (or outer) side, 2 acyl side, 3 side chain; on linkers, the order of the positions; unused ones are H or OH. Bridge positions count the residues as written; N and C are the ends. Peptide text beside a SMILES is read from it. X1 = O=C(NC[*:1])NC[*:2]
property: IC50 at 24 h (µM)
Give the number; µM is assumed, so skip it.

*Q* Value lookup for IC50 at 24 h; key = CC(C)CC(NC(=O)C(CCCCN)NC(=O)C(CCCCN)NC(=O)C(Cc1ccccc1)NC(=O)C(CC(C)C)NC(=O)C(CCCCN)NC(=O)C(CCCCN)NC(=O)C(Cc1ccccc1)NC(=O)C(CCCCN)NC(=O)C1CSCNC(=O)NCSCC(NC(=O)C(Cc2ccccc2)NC(=O)C(CCCNC(=N)N)NC(=O)CN)C(=O)NC(CCCNC(=N)N)C(=O)NC(Cc2ccccc2)C(=O)NC(CCCNC(=N)N)C(=O)N1)C(=O)NC(CO)C(=O)O (stereo not shown) [SAH1] (H-GRFCRFRCKFKKLFKKLS-OH; linker 4-8 via X1; configuration not given here)
*A* 300
